Let's look at some binders and their measured pKd.
- target: T1, basiliximab fab
- T1 construct: The assay used a Fab of basiliximab; Chimeric antibody: human IgG1 constant, mouse variable domains
- T1 sequence (VH, as listed by the source limits assumed, chain 1 of 2): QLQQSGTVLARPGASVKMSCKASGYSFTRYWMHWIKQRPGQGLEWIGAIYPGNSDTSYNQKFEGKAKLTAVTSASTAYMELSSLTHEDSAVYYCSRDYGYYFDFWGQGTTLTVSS
- T1 sequence (VL, as listed by the source limits assumed, chain 2 of 2): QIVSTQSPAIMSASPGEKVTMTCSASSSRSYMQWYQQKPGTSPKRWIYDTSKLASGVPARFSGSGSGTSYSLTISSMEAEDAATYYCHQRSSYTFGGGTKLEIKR
- experiment.summary: BLI; CD25-Fc on anti-hFc biosensor, basiliximab Fab in solution; global 1:1 fit;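 note: biolayer interferometry signals normalized against a reference probe and smoothed with a Savitzky-Golay filter before the global fit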
Field pKd (float): negative decimal logarithm of the concentration in molar.

Here are 3 binders together with their reported answers.
INSERT INTO results (binder, meas_value) VALUES
  ('CD25 T47S mutant (CD25-Fc) (Fc fusion, not shown: Fc part of CD25-Fc) ELCDDDPPEIPHATFKAMAYKEGTMLNCECKRGFRRIKSGSLYMLCSGNSSHSSWDNQCQCTSSATRNTTKQVTPQPEEQKERKTTEMQSPMQPVDQASLPGHCREPPPWENEATERIYHFVVGQMVYYQCVQGYRALHRGPAESVCKMTHGKTRWTQPQLICTGEMETSQFPGEEKPQASPEGRPESETSCLVTTTDFQIQTEMAATMETSIFTTEYQ', 8.35),
  ('CD25 L42G mutant (CD25-Fc) (Fc fusion, not shown: Fc part of CD25-Fc) ELCDDDPPEIPHATFKAMAYKEGTMLNCECKRGFRRIKSGSGYMLCTGNSSHSSWDNQCQCTSSATRNTTKQVTPQPEEQKERKTTEMQSPMQPVDQASLPGHCREPPPWENEATERIYHFVVGQMVYYQCVQGYRALHRGPAESVCKMTHGKTRWTQPQLICTGEMETSQFPGEEKPQASPEGRPESETSCLVTTTDFQIQTEMAATMETSIFTTEYQ', 8.94),
  ('CD25 L42V mutant (CD25-Fc) (Fc fusion, not shown: Fc part of CD25-Fc) ELCDDDPPEIPHATFKAMAYKEGTMLNCECKRGFRRIKSGSVYMLCTGNSSHSSWDNQCQCTSSATRNTTKQVTPQPEEQKERKTTEMQSPMQPVDQASLPGHCREPPPWENEATERIYHFVVGQMVYYQCVQGYRALHRGPAESVCKMTHGKTRWTQPQLICTGEMETSQFPGEEKPQASPEGRPESETSCLVTTTDFQIQTEMAATMETSIFTTEYQ', 8.41);

Given item CD25 Y43R mutant (CD25-Fc) (Fc fusion, not shown: Fc part of CD25-Fc) ELCDDDPPEIPHATFKAMAYKEGTMLNCECKRGFRRIKSGSLRMLCTGNSSHSSWDNQCQCTSSATRNTTKQVTPQPEEQKERKTTEMQSPMQPVDQASLPGHCREPPPWENEATERIYHFVVGQMVYYQCVQGYRALHRGPAESVCKMTHGKTRWTQPQLICTGEMETSQFPGEEKPQASPEGRPESETSCLVTTTDFQIQTEMAATMETSIFTTEYQ , the value recorded as its pKd is 8.86

Given item CD25 S41N mutant (CD25-Fc) (Fc fusion, not shown: Fc part of CD25-Fc) ELCDDDPPEIPHATFKAMAYKEGTMLNCECKRGFRRIKSGNLYMLCTGNSSHSSWDNQCQCTSSATRNTTKQVTPQPEEQKERKTTEMQSPMQPVDQASLPGHCREPPPWENEATERIYHFVVGQMVYYQCVQGYRALHRGPAESVCKMTHGKTRWTQPQLICTGEMETSQFPGEEKPQASPEGRPESETSCLVTTTDFQIQTEMAATMETSIFTTEYQ , the value recorded as its pKd is 8.41

Given item CD25 S41Q mutant (CD25-Fc) (Fc fusion, not shown: Fc part of CD25-Fc) ELCDDDPPEIPHATFKAMAYKEGTMLNCECKRGFRRIKSGQLYMLCTGNSSHSSWDNQCQCTSSATRNTTKQVTPQPEEQKERKTTEMQSPMQPVDQASLPGHCREPPPWENEATERIYHFVVGQMVYYQCVQGYRALHRGPAESVCKMTHGKTRWTQPQLICTGEMETSQFPGEEKPQASPEGRPESETSCLVTTTDFQIQTEMAATMETSIFTTEYQ , the value recorded as its pKd is 8.28

Given item CD25 L2I mutant (CD25-Fc) (Fc fusion, not shown: Fc part of CD25-Fc) EICDDDPPEIPHATFKAMAYKEGTMLNCECKRGFRRIKSGSLYMLCTGNSSHSSWDNQCQCTSSATRNTTKQVTPQPEEQKERKTTEMQSPMQPVDQASLPGHCREPPPWENEATERIYHFVVGQMVYYQCVQGYRALHRGPAESVCKMTHGKTRWTQPQLICTGEMETSQFPGEEKPQASPEGRPESETSCLVTTTDFQIQTEMAATMETSIFTTEYQ , the value recorded as its pKd is 8.46

Given item CD25 L42I mutant (CD25-Fc) (Fc fusion, not shown: Fc part of CD25-Fc) ELCDDDPPEIPHATFKAMAYKEGTMLNCECKRGFRRIKSGSIYMLCTGNSSHSSWDNQCQCTSSATRNTTKQVTPQPEEQKERKTTEMQSPMQPVDQASLPGHCREPPPWENEATERIYHFVVGQMVYYQCVQGYRALHRGPAESVCKMTHGKTRWTQPQLICTGEMETSQFPGEEKPQASPEGRPESETSCLVTTTDFQIQTEMAATMETSIFTTEYQ , the value recorded as its pKd is 7.63

Given item CD25 T47D mutant (CD25-Fc) (Fc fusion, not shown: Fc part of CD25-Fc) ELCDDDPPEIPHATFKAMAYKEGTMLNCECKRGFRRIKSGSLYMLCDGNSSHSSWDNQCQCTSSATRNTTKQVTPQPEEQKERKTTEMQSPMQPVDQASLPGHCREPPPWENEATERIYHFVVGQMVYYQCVQGYRALHRGPAESVCKMTHGKTRWTQPQLICTGEMETSQFPGEEKPQASPEGRPESETSCLVTTTDFQIQTEMAATMETSIFTTEYQ , the value recorded as its pKd is 8.44

The origin of these recorded values is patent US20230056336A1.
